Provenance of the data: paper PMC5216877

Biological target: TM287/288 (Thermotoga maritima, UniProt Q9WYC3+Q9WYC4, C28S/C496S/C519S/C558S/C73S)
Assay: Inhibition of ATPase activity of TM287/288 by vanadate and nucleotides
Assay type: biochemical
Details: TM287/288, 50°C, 500 µM ATP; read-out: IC50
Method: Nucleotide binding and hydrolysis follow a complex mechanism in heterodimeric ABC exporters, due to the existence of a degenerate and a consensus site in the NBDs. […] Using the relation IC50=Ki(1+[S]/Km), Ki values for the respective nucleotides were determined (Table 2). […] In contrast to ATPγS, hydrolysis of AMP-PNP releases Pi, which can be detected by the molybdate/malachite green method. […] Ki values were calculated according to the formula Ki=IC50/(1+[S]/Km) […]
measured.attribute: IC50 (µM)
Response body: numeric value in µM, unit text excluded.

Return reported IC50; argument: Nc1ncnc2c1ncn2[C@@H]1O[C@H](COP(=O)(O)OP(=O)(O)O)[C@@H](O)[C@H]1O
681

Need IC50 of Nc1ncnc2c1ncn2[C@@H]1O[C@H](COP(=O)(O)OP(=O)(O)NP(=O)(O)O)[C@@H](O)[C@H]1O , thanks.
16.1

IC50 for [Na+].[Na+].[Na+].[O]=[V]([O-])([O-])[O-] [Vanadate, sodium orthovanadate] ?
4.9

###

System: TM287/288
Test: DEER two-Gaussian fit of IF/OF populations, wildtype TM287/288
Set-up: species or system Thermotoga maritima
Conditions: spin-labeled pair 131^TM288-248^TM288 WT, estimated errors 10%
Description: All nucleotides and nucleotide analogs used in this study were added at saturating conditions well above their Ki values (Table 2). […] Therefore, the IF/OF fractions detected in the sample reflect the average life time that the nucleotide-bound transporter spends in either conformation. […] The labeling efficiency of the double cysteine mutants of the transporters solubilized in detergent was measured at 25°C using an X-band Miniscope 400 EPR spectrometer (Magnettech by Freiberg Instrument). […]
What OF frac was measured for each of the following?
Number only, in %; omit the unit.

For the compound Nc1ncnc2c1ncn2[C@@H]1O[C@H](COP(=O)(O)OP(=O)(O)NP(=O)(O)O)[C@@H](O)[C@H]1O , what OF frac is on record?
0

Any idea what its OF frac is? The compound is Nc1ncnc2c1ncn2[C@@H]1O[C@H](COP(=O)(O)OP(=O)(O)OP(=O)(O)O)[C@@H](O)[C@H]1O
43.2

What value of measured OF frac is listed for Nc1ncnc2c1ncn2[C@@H]1O[C@H](CO[P@](=O)(O)O[P@](=O)(O)O[P@@](=O)(O)S)[C@@H](O)[C@H]1O ?
27.1

Given the entry Nc1ncnc2c1ncn2[C@@H]1O[C@H](COP(=O)(O)OP(=O)(O)O)[C@@H](O)[C@H]1O , report its measured OF frac.
0

###

Biological target: BmrCD (Bacillus subtilis, UniProt O07549+O07550, C154A/C256A/C351A)
Construct: made in house; host or cells: E. coli MC1061
Sequence (O07550 whole entry): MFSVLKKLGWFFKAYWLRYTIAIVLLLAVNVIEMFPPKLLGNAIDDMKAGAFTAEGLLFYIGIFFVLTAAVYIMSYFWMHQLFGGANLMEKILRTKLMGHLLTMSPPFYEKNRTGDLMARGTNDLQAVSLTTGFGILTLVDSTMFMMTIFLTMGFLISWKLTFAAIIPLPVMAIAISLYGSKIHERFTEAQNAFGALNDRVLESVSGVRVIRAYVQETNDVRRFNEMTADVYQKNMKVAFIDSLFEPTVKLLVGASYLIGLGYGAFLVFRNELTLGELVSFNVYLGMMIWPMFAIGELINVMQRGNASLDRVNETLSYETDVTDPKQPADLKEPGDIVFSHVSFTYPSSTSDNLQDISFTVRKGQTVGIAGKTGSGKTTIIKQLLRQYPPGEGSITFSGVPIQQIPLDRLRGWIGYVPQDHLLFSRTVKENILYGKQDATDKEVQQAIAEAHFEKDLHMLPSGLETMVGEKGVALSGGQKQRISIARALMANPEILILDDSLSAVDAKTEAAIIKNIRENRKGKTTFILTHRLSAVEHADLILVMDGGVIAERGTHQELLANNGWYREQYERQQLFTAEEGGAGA
Sequence (O07549 whole entry C154A/C256A/C351A): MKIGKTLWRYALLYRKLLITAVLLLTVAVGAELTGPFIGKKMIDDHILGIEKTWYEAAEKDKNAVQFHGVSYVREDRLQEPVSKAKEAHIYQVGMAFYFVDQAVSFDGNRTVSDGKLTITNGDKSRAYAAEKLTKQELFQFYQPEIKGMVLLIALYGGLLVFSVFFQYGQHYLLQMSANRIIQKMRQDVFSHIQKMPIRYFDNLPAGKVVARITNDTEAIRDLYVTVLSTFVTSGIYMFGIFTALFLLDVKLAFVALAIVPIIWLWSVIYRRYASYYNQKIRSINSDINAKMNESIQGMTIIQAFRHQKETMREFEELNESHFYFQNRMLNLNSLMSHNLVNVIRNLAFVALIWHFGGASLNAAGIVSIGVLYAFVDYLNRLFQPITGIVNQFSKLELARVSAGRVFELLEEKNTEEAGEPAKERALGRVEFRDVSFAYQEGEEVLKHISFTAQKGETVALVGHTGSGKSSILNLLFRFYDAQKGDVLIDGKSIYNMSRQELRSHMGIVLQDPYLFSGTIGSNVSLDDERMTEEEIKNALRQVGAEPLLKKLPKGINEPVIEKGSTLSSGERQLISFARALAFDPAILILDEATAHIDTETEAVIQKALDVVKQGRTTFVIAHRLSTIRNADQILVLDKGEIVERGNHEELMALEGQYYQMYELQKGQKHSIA
Test: Inhibition of ATPase activity of BmrCD by nucleotide analogs
Type: biochemical
Settings: BmrCD, 25°C; calculated from IC50 and Km; read-out: Ki
measured.attribute: Ki (µM)
Number only, in µM; omit the unit.

Tell me the measured Ki of Nc1ncnc2c1ncn2[C@@H]1O[C@H](COP(=O)(O)OP(=O)(O)NP(=O)(O)O)[C@@H](O)[C@H]1O , please.
21
